From: PubChem BioAssay

- method: reducers of polyQ inclusions in PC12 cells, cell-based, NGF-treated PC12, GFPQ80 (AID 1614);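 note: lower means fewer inclusions and 0 means no inclusions at all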
- conditions: PC12 NGF-treated GFP-polyQ80 inclusion reduction
Bridge positions count the residues as written; N and C are the ends. Square brackets hold non-standard residues; d marks the D form. Peptide text beside a SMILES is read from it. * marks the point of attachment. Octanoyl(6-Me) = CCC(C)CCCCC(=O)*; Dab = NCC[CH](N)C(=O)O

compound	inclusion score
CC(C(=O)O)c1ccc(-c2ccccc2)c(F)c1 (stereo unspecified)	2
CCCn1c(=O)c2[nH]c(C3CCCC3)nc2n(CCC)c1=O	2
CC1(C)S[C@@H]2[C@H](NC(=O)Cc3ccccc3)C(=O)N2[C@H]1C(=O)O	2
Cc1ccc(/C(=C\CN2CCCC2)c2ccccn2)cc1	2
CCC(C)CCCCC(=O)NC(CCN)C(=O)NC(C(=O)NC(CCN)C(=O)NC1CCNC(=O)C(C(C)O)NC(=O)C(CCN)NC(=O)C(CCN)NC(=O)C(CC(C)C)NC(=O)C(Cc2ccccc2)NC(=O)C(CCN)NC1=O)C(C)O (stereo unspecified) ({Octanoyl(6-Me)}-[Dab]T[Dab][Dab][Dab]FL[Dab][Dab]T; lactam 4-C; configuration not given here)	2
O=c1cc(-c2ccc(O)cc2)oc2cc(O)cc(O)c12	1.5
CN/C(=C\[N+](=O)[O-])NCCSCc1ccc(CN(C)C)o1	2
Cn1c(=O)c2[nH]c(C3CCCC3)nc2n(C)c1=O	1.5
CC12CCC(CC1)C(C)(C)O2	2
N[C@H](C(=O)O)[C@@H]1CC(Cl)=NO1	1
CC(=O)NC(Cc1ccccc1)C(=O)O (stereo unspecified)	2
Cc1c(N)c(=O)n(-c2ccccc2)n1C	1
Nc1ccc(S(=O)(=O)Nc2ncccn2)cc1	2
CC(=C(CCOP(=O)(O)O)SC(=O)c1ccccc1)N(C=O)Cc1cnc(C)nc1N	2
NC1=NCCN1CC(=O)O	2
CC(Oc1ccccc1)C(=O)N[C@@H]1C(=O)N2[C@@H]1SC(C)(C)[C@@H]2C(=O)O (stereo partly specified)	2
CN(C)CCOC(c1ccccc1)c1ccccc1 (tested in a mixture with another compound)	2
c1coc(CNc2ncnc3nc[nH]c23)c1	2
CC(=O)N[C@@H](CC(C)C)C(=O)O	2
CCCC(CCC)C(=O)O	2
N=c1nc(N2CCCCC2)cc(N)n1O	1
CC1CCCC(C)N1NC(=O)c1ccc(Cl)c(S(N)(=O)=O)c1 (stereo unspecified)	2
CN1C(=O)CC[C@H]1c1cccnc1	2
COC(=O)[C@H]1[C@H]2C[C@H]3c4[nH]c5ccccc5c4CCN3C[C@H]2CC[C@@H]1O	2
CC(CCc1ccccc1)NCC(O)c1ccc(O)c(C(N)=O)c1 (stereo unspecified)	2
Oc1cc(O)c2c(c1)O[C@H](c1ccc(O)c(O)c1)[C@@H](O)C2	2
CC(N)C(=O)NC(Cc1ccccc1)C(=O)O (stereo unspecified)	2
O=C1NS(=O)(=O)c2ccccc21	2
COc1c2ccoc2cc2oc(=O)ccc12	2
C[N+](C)(C)CC(O)CC(=O)O (stereo unspecified)	2
CSCCC(NC=O)C(=O)NC(CC(C)C)C(=O)NC(Cc1ccccc1)C(=O)O (stereo unspecified)	1
NCC(O)CC(=O)O (stereo unspecified)	2
CCCCCCCCCCCCCCCC(=O)OC/C=C(C)/C=C/C=C(C)/C=C/C1=C(C)CCCC1(C)C	2
NCCc1cnc[nH]1	2
C=C[C@H]1CN2CC[C@H]1C[C@@H]2[C@@H](O)c1ccnc2ccc(OC)cc12	2
CN1CCc2cccc3c2C1Cc1ccc(O)c(O)c1-3 (stereo unspecified)	2
C=C1c2c(Cl)ccc(O)c2C(O)=C2C(=O)[C@]3(O)C(O)=C(C(N)=O)C(=O)[C@@H](N(C)C)[C@@H]3[C@@H](O)[C@H]12	1
C[C@]12CCC3c4ccc(OS(=O)(=O)O)cc4CCC3C1CC[C@H]2O (stereo partly specified)	2
COc1ccc(/C=C/c2cc(O)cc(O[C@@H]3O[C@H](CO)[C@@H](O)[C@H](O)[C@H]3O)c2)cc1O	2
CC(=O)NCCc1c[nH]c2ccc(O)cc12	2
NC(N)=O	2
O=C(O)C1=CCNCC1	2
O=C(O)c1cc(O)ccc1O	2
COc1cc(Cc2cnc(N)nc2N)cc(OC)c1OC	2
COC(=O)[C@H]1[C@H]2C[C@H]3c4[nH]c5cc(OC)ccc5c4CCN3C[C@H]2C[C@@H](OC(=O)c2cc(OC)c(OC)c(OC)c2)[C@@H]1OC	2.5
CSCCC(NC=O)C(=O)NC(C)C(=O)O (stereo unspecified)	2

====

- method: growth inhibition of DIPG glioma cells, dose response, cell-based, SU-DIPG-IV, MIPE4.0, CellTiter-Glo, qHTS (AID 1347063);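 note: compound exposure lasted 48 hours before the viability readout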
- conditions: SU-DIPG-IV viability, CellTiter-Glo ATP luminescence
Records with an inconclusive call do not appear. Activity calls are given as the source filed them. Cut-off not given; nearly all actives show AC50 up to about 30 µM.
Outcomes: 1.0 = active, 0.0 = inactive

> print(dat)
                                 inputsmiles  grouplabel
 1  CC#C[C@]1(O)CC[C@H]2[C@@H]3CCC4=CC(=O)CCC4=C3[C@@H](c3ccc(N(C)C)cc3)C[C@@]21C         1.0
 2  CC/C(=C(\c1ccccc1)c1ccc(OCCN(C)C)cc1)c1ccccc1         1.0
 3    COc1cccc(N(C)C(=S)Oc2ccc3c(c2)CCCC3)n1         0.0
 4           NC(=O)Cc1cccc(C(=O)c2ccccc2)c1N         0.0
 5         CCOC(=O)Nc1ccc(NCc2ccc(F)cc2)nc1N         0.0
 6  Cc1c(-c2ccc(O)cc2)n(Cc2ccc(OCCN3CCCCCC3)cc2)c2ccc(O)cc12         0.0
 7     CN1CCN(C2=Nc3cc(Cl)ccc3Nc3ccccc32)CC1         0.0
 8  CC1(C)[C@H](C(=O)O)N2C(=O)C[C@H]2S1(=O)=O         0.0
 9  Nc1ncn([C@H]2C[C@H](O)[C@@H](CO)O2)c(=O)n1         0.0
10  CC(=O)N[C@H]1[C@H]([C@H](O)[C@H](O)CO)OC(C(=O)O)=C[C@@H]1N=C(N)N         0.0

====

In this section we review reported growth inhibition values for a set of compounds.
- method: antimalarial activity against Dd2 strain (AID 2302);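 note: 0% = DMSO untreated growth and 100% = chloroquine plus artemisinin killed control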
- conditions: P. falciparum Dd2 in RBCs, LDH growth readout, 72 h; at 2 µM; stronger effect = higher value
valueType: growth inhibition (%)

> print(dat)
                                inputsmiles  resultnumber
1         CCCc1cc(Cc2cnc(N)nc2N)cc(CCC)c1OC             1
2  COc1ccccc1NC(=O)c1cc(C(=O)c2cc(Cl)ccc2O)cn(-c2ccccc2OC)c1=O            31
3  CCc1c(C)nc2nc(Cc3cccc(F)c3)nn2c1N1CCN(c2ccccn2)CC1            98
4  CCCCCCCc1ccc(-c2c(C)[nH]c(C)c(Cl)c2=O)cn1            96

====

- Test system: Neuropilin-2 / VEGF-C interaction (human)
- method: inhibitors of NRP2–VEGF-C binding, biochemical, microplate binding format, z-score (AID 743281)
- conditions: microplate NRP2/VEGF-C binding assay; stronger effect = lower value

compound	z-score
Nc1ccn([C@@H]2O[C@H](CO)[C@@H](O)C2O)c(=O)n1 (stereo partly specified)	0.042
CCCCC(=O)N(Cc1ccc(-c2ccccc2-c2nn[nH]n2)cc1)[C@H](C(=O)O)C(C)C	-0.0697
C[N+]1(C)CCC(OC(=O)C(O)(c2ccccc2)C2CCCC2)C1 (stereo unspecified)	-0.121
C[C@H]1COc2c(N3CCN(C)CC3)c(F)cc3c(=O)c(C(=O)O)cn1c23	-0.188
CC[C@H](C)C(=O)O[C@H]1CCC=C2C=C[C@H](C)[C@H](CC[C@@H]3C[C@@H](O)CC(=O)O3)[C@H]21	-1.1
COc1ccc(-c2oc3c(CC=C(C)C)c(O[C@@H]4O[C@H](CO)[C@@H](O)[C@H](O)[C@H]4O)cc(O)c3c(=O)c2O[C@@H]2O[C@@H](C)[C@H](O)[C@@H](O)[C@H]2O)cc1	0.976

====

- method: growth inhibition of DIPG glioma cells, dose response, cell-based, SU-DIPG-XIII, MIPE4.0, CellTiter-Glo, qHTS (AID 1347061);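 note: cells exposed to compound for 48 hours before readout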
- conditions: SU-DIPG-XIII viability, CellTiter-Glo ATP luminescence
Inconclusive results are not listed. Calls of active or inactive are those of the source. No cut-off is given here; in the data, nearly all actives have AC50 up to about 37 µM.
Outcomes: yes (1) for active, no (0) for inactive

> print(dat)
                                    compound  grouplabel
 1  OC(CN1CCN(c2cccc(Cl)c2)CC1)C(c1ccccc1)c1ccccc1 (stereo unspecified)     yes (1)
 2  O=C(O)c1cn(C2CC2)c2cc(N3CCNCC3)c(F)cc2c1=O      no (0)
 3    NS(=O)(=O)c1cc(Cl)c(Cl)c(S(N)(=O)=O)c1      no (0)
 4         O=c1cc(-c2ccccc2)oc2cc(O)cc(O)c12      no (0)
 5  CCS(=O)(=O)Nc1ccc2[nH]c(O)c(C(=Nc3ccc(CN4CCCCC4)cc3)c3ccccc3)c2c1     yes (1)
 6  C[C@H]1C[C@H]2[C@@H]3CCC4=CC(=O)C=C[C@]4(C)[C@@]3(F)[C@@H](O)C[C@]2(C)[C@@]1(O)C(=O)CO      no (0)
 7  C[C@@]12C[C@@]3(O)O[C@@H](O1)[C@]1(COC(=O)c4ccccc4)[C@H]3C[C@@]12O[C@@H]1O[C@H](CO)[C@@H](O)[C@H](O)[C@H]1O      no (0)
 8  CCOCC(O)COc1ccc(NC(=O)CC[S+](C)C)cc1 (stereo unspecified)      no (0)
 9       Cc1[nH]c(=O)c(C#N)cc1-c1ccc2nccn2c1      no (0)
10  O=C(CCCN1CCC(O)(c2ccc(Cl)cc2)CC1)c1ccc(F)cc1      no (0)
11                      O=c1cc(O)c(Cl)c[nH]1      no (0)
12       N[C@@H](Cc1c[nH]c2ccc(O)cc12)C(=O)O      no (0)
13  CCCCCCCCCCCCCCCCCCOP(=O)([O-])OC1CC[N+](C)(C)CC1      no (0)
14  CSCC[C@H](NC(=O)[C@H](Cc1c[nH]c2ccccc12)NC(=O)CCNC(=O)OC(C)(C)C)C(=O)N[C@@H](CC(=O)O)C(=O)N[C@@H](Cc1ccccc1)C(N)=O     yes (1)
15                           CCCC(CCC)C(=O)O      no (0)
16  COC(c1ccccc1)(c1ccccc1)[C@H](Oc1nc(C)cc(C)n1)C(=O)O      no (0)
17                  COc1cc(/C=C/C(=O)O)ccc1O      no (0)
18  C[C@@H](NCCCc1cccc(C(F)(F)F)c1)c1cccc2ccccc12      no (0)
19         CCCCCCCCCCCC1=C(O)C(=O)C=C(O)C1=O      no (0)
20                  N=c1nc(N2CCCCC2)cc(N)n1O      no (0)
21  O=c1[nH]c(=O)n([C@H]2C[C@H](O)[C@@H](CO)O2)cc1C(F)(F)F      no (0)
